- assay.procedure: A CellTox Green Cytotoxicity Assay to monitor cytotoxicity in HepG2 cells - 40 hour (AID 1224879); note: % is set by controls: 0 for no effect and ±100 for the full control effect; nearly all actives have a fitted effect of over 40% in size
- assay.setup: CellTox Green fluorescence; series mostly up to 76.8 µM
Records with an inconclusive call do not appear. Active and inactive are the calls of the source. Calls come from the whole dose curve; as a rule, active = well fitted activation curve with a large enough effect in the repeat runs; inconclusive = weak or mixed curves; inactive = flat fitted curve, though single readings scatter.
recorded.metric: cytotoxicity increase

# annotated cases, reported cytotoxicity increase shown
O=C1c2ccccc2C(=O)N1CCl ... inactive
On1nnc2ccccc21 ... inactive
N[C@@H](CCC(=O)N[C@@H](CS)C(=O)NCC(=O)O)C(=O)O ... -8.24% [at 15.8 µM] (inactive)
CC(C)c1ccc2cc(C(C)C)ccc2c1 ... inactive
CCC(C)(CCC(C)C)C(=O)O (stereo not drawn) ... inactive
CC(C)CC(C)CC(C)CC(C)COC(=O)c1ccccc1C(=O)OCC(C)CC(C)CC(C)CC(C)C (stereo not drawn) ... inactive

Please report cytotoxicity increase for every entry that follows.
1. COc1cc2c(cc1OC)C(=O)CC2
2. COCCOC(=O)C1=C(C)NC(C)=C(C(=O)OC(C)C)C1c1cccc([N+](=O)[O-])c1 (stereo not drawn)
3. Cc1ccc(C=O)cc1C
4. O=C(OCC(O)CO)c1ccccc1Nc1ccnc2c(C(F)(F)F)cccc12 (stereo not drawn)
5. CC(C)(C)NC(N)=O
6. Cc1cccc(OCC(O)CNC(C)(C)C)c1C (stereo not drawn)
7. CCCCCCCCCCl

RESULT:
inactive
inactive
inactive
inactive
inactive
inactive
inactive
